system: SCD (Rattus norvegicus)
Construct: an enzyme reaction using rat liver microsome (20 μg) was performed for 15 min; from tissue; host or cells: rat liver microsome fraction
experiment-description: Measurement of SCD inhibitory activity using microsome (TLC detection system)
Type: biochemical
experimental-parameters: rat liver microsome (20 μg), 15 min, [14C] stearoyl-CoA; test compound (10 mM) diluted to 3/1000 with 3× buffer, 10 μL in 30 μL reaction
measurement-kind: SCD activity inhibitory rate (%)
One number for each entry, in %.

Sample records with SCD activity inhibitory rate (%):
| compound | measurement-kind | reported-value |
| --- | --- | --- |
| Cc1noc(-c2ccc(N3CCC4(C3)OCc3ccccc34)nn2)n1 (stereo not shown) [Example 178] | SCD activity inhibitory rate (%) | 97 |
| Cc1noc(-c2ccc(N3CCC4(COc5ccccc54)C3)nn2)n1 (stereo not shown) [Example 179 (short retention time)] | SCD activity inhibitory rate (%) | 100 |
| Cc1noc(-c2ccc(N3CCC4(C3)OCc3ccccc34)nn2)n1 (stereo not shown) [Example 177] | SCD activity inhibitory rate (%) | 99 |

Turning now to a further record.
Entry Cc1noc(-c2ccc(N3CCC4(COc5ccccc54)C3)nn2)n1 (stereo not shown) [Example 179 (long retention time)] needs its SCD activity inhibitory rate (%) filled in; supply it.
96

###

system: SCD (Rattus norvegicus)
Construct: an enzyme reaction using rat liver microsome (20 μg) was performed for 15 min; from tissue; host or cells: rat liver microsome fraction
experiment-description: Measurement of SCD inhibitory activity using microsome (TLC detection system)
Assay type: biochemical
experimental-parameters: rat liver microsome (20 μg), 15 min, [14C] stearoyl-CoA; test compound (10 mM) diluted to 3/1000 with 3× buffer, 10 μL in 30 μL reaction; read-out: SCD activity inhibitory rate (%)
measurement-kind: inhibition at 10 µM (%)
Numbers only, in %.

Use the examples below as a reference point.
| compound | units | inhibition at 10 µM |
| --- | --- | --- |
| OCc1noc(-c2ccc(N3CCC4(CC3)COc3ccccc34)nn2)n1 | % | 100 |
| Cc1nsc(-c2ccc(N3CCC4(CC3)CC(=O)c3ccccc3O4)nn2)n1 | % | 100 |
| O=C(NCC(O)Cc1ccccc1)c1ccc(N2CCC3(C=Cc4ccccc43)CC2)nn1 (stereo not drawn) | % | 100 |
| Cc1nsc(-c2ccc(N3CCC4(C=Cc5ccccc54)CC3)nn2)n1 | % | 99 |
| O=C(CNC(=O)c1ccc(N2CCC3(C=Cc4ccccc43)CC2)nn1)c1ccccc1 | % | 99 |

Working through the 4 compounds below one at a time, give inhibition at 10 µM for each.
1. Cc1noc(-c2ccc(N3CCC4(C3)OCc3ccccc34)nn2)n1 (stereo not drawn)
2. Cc1nsc(-c2ccc(N3CCC4(CC3)CN(c3cccc(F)c3)C(=O)O4)nn2)n1
3. Cc1noc(-c2ccc(N3CCC4(Cc5ccccc5O4)C3)nn2)n1 (stereo not drawn)
4. Cc1nsc(-c2ccc(N3CCC4(CC3)NC(=O)c3ccccc3N4)nn2)n1

[100, 99, 100, 95]

###

system: SCD (Rattus norvegicus, UniProt P07308)
Construct: an enzyme reaction using rat liver microsome (20 μg) was performed for 15 min; from tissue; host or cells: rat liver microsome fraction
experiment-description: Measurement of SCD inhibitory activity using microsome (TLC detection system)
Assay type: biochemical
experimental-parameters: rat liver microsome (20 μg), 15 min, [14C] stearoyl-CoA; test compound (10 mM) diluted to 3/1000 with 3× buffer, 10 μL in 30 μL reaction; read-out: SCD activity inhibitory rate (%)
Procedure: (Test Method: Measurement of SCD Inhibitory Activity Using Microsome (TLC Detection System)) A test compound (10 mM) diluted with DMSO in advance was secondarily diluted to 3/1000 with 3× buffer (300 mmol/L NaH2PO4 [pH 7.4], 450 mM KCl, 30 mM NaF, 9 mM MgCl2, 4.5 mM glutathione [reduced form], 0.3% BSA [fatty acid free, SIGMA]). […]
measurement-kind: inhibition at 10 µM (%)
One number for each entry, in %.

| compound | measurement-kind | units | reported-value |
| --- | --- | --- | --- |
| O=C(NCCc1cccnc1)c1ccc(N2CCC3(C=Cc4ccccc43)CC2)nn1 | inhibition at 10 µM | % | 98 |
| Cc1nsc(-c2ccc(N3CCC4(CC3)CN(c3ccccc3)C(=O)CO4)nn2)n1 | inhibition at 10 µM | % | 94 |
| OCc1noc(-c2ccc(N3CCC4(C3)OCc3ccccc34)nn2)n1 (centres unmarked) | inhibition at 10 µM | % | 100 |
| OCc1noc(-c2ccc(N3CCC4(COc5ccccc54)C3)nn2)n1 (centres unmarked) | inhibition at 10 µM | % | 100 |

State its inhibition at 10 µM: OCc1nc(-c2ccc(N3CCC4(CC3)COc3ccccc34)nn2)no1
100

###

system: SCD (Rattus norvegicus)
Construct: an enzyme reaction using rat liver microsome (20 μg) was performed for 15 min; from tissue; host or cells: rat liver microsome fraction
Sequence (P07308 1-358): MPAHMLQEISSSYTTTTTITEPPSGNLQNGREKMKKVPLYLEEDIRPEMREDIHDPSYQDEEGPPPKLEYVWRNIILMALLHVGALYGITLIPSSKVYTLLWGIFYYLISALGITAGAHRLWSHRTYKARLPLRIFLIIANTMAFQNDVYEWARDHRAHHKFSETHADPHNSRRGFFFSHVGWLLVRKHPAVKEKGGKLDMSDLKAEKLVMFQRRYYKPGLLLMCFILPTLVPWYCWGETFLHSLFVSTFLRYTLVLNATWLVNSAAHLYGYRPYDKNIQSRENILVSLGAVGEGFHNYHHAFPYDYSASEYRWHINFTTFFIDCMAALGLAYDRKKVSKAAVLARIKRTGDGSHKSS
experiment-description: Measurement of SCD inhibitory activity using microsome (TLC detection system)
Format: biochemical
experimental-parameters: rat liver microsome (20 μg), 15 min, [14C] stearoyl-CoA; test compound (10 mM) diluted to 3/1000 with 3× buffer, 10 μL in 30 μL reaction; read-out: SCD activity inhibitory rate (%)
Give measured inhibition at 10 µM for each item. Keep answers brief.
Numbers only, in %.

Here are 4 compounds together with their reported answers.
| compound | inhibition at 10 µM (%) |
| --- | --- |
| Cc1noc(-c2ccc(N3CCC4(C3)C(=O)N(C)c3ccccc34)nn2)n1 (centres unmarked) | 99 |
| Cc1noc(-c2ccc(N3CCC4(COc5ccccc54)C3)nn2)n1 (centres unmarked) | 97 |
| Cc1nsc(-c2ccc(N3CCC4(CC3)COc3ccccc34)nn2)n1 | 100 |
| Cc1nsc(-c2ccc(N3CCC4(COc5ccccc54)C3)nn2)n1 (centres unmarked) | 99 |

Supply recorded inhibition at 10 µM for Cc1nsc(-c2ccc(N3CCC4(CC3)Cc3ccccc3O4)nn2)n1 here.
97

###

I'd be grateful if you could share measured inhibition at 10 µM for these entries.
system: SCD (Rattus norvegicus)
Construct: an enzyme reaction using rat liver microsome (20 μg) was performed for 15 min; from tissue; host or cells: rat liver microsome fraction
Sequence (P07308 1-358): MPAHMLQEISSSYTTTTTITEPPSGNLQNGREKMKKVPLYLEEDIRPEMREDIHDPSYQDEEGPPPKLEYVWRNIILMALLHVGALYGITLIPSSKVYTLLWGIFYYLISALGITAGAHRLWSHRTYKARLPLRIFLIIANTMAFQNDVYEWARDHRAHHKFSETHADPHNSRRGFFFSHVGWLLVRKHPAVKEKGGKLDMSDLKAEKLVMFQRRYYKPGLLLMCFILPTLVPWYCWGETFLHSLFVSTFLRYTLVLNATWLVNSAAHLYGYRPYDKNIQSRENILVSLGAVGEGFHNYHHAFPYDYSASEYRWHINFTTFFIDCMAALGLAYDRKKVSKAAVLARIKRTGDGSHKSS
experiment-description: Measurement of SCD inhibitory activity using microsome (TLC detection system)
Type: biochemical
experimental-parameters: rat liver microsome (20 μg), 15 min, [14C] stearoyl-CoA; test compound (10 mM) diluted to 3/1000 with 3× buffer, 10 μL in 30 μL reaction; read-out: SCD activity inhibitory rate (%)
One number for each entry, in %.

| compound | units | inhibition at 10 µM |
| --- | --- | --- |
| CC1CSC(c2ccc(N3CCC4(CC3)COc3ccccc34)nn2)=N1 (stereo not drawn) [Example 146] | % | 97 |

Quick one: give me inhibition at 10 µM for each item below, same order please.
1. Cc1nsc(-c2ccc(N3CCC4(C3)OCc3ccccc34)nn2)n1 (stereo not drawn) [Example 15]
2. Cc1nc(-c2ccc(N3CCC4(C3)OCc3ccccc34)nn2)no1 (stereo not drawn) [Example 150]
3. C1=CC2(CCN(c3ccc(-c4ncns4)nn3)CC2)c2ccccc21 [Example 11]
4. Cc1noc(-c2ccc(N3CCC4(CC3)CN(c3ccc(F)cc3)C(=O)O4)nn2)n1 [Example 47]
5. O=C(N[C@H]1C[C@@H]1c1ccccc1)c1ccc(N2CCC3(C=Cc4ccccc43)CC2)nn1 [Example 126]
6. Cc1nsc(-c2ccc(N3CCC4(C=Cc5ccccc5O4)CC3)nn2)n1 [Example 20]

1: 100; 2: 99; 3: 93; 4: 93; 5: 98; 6: 98

Report inhibition at 10 µM for each item below.
1. O=C(NCC(O)c1ccccc1)c1ccc(N2CCC3(C=Cc4ccccc43)CC2)nn1 (stereo not drawn) [Example 60]
2. Cc1nsc(-c2ccc(N3CCC4(CC3)NC(=O)c3ccccc3O4)nn2)n1 [Example 31]

[98, 92]
